Target: T1, AlkB (Escherichia coli, UniProt P05050 1-216)
T1 sequence: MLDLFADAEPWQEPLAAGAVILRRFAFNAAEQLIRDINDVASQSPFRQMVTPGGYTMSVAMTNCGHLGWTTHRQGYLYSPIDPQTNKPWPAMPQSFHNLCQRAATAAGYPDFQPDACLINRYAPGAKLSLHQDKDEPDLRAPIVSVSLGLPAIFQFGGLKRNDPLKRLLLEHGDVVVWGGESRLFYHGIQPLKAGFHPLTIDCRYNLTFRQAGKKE
Experiment Description: stopped-flow Trp fluorescence, from rate constants of steps 1-3; Fe(II), aKG; 50 mM HEPES-KOH pH 7.5, 50 mM KCl, 10 mM MgCl2, 40 uM Fe(II), 1 mM aKG, 2 mM ascorbate (composition as given for the anaerobic runs); stopped-flow at 37 C; titration temperature not given in the material
Experimental Context: protein: recombinant; tags: His6; single strand
Measure Name: Kd
Don't forget the unit after the number, please.

**Q:** Which Kd reading was recorded for the binder ACAGGATCCGGCATA (ssDNA, N1-methyladenine at position 6) [ss15m1A] ?
**A:** 4.3 nM
